Consider the following binders and their measured interaction score readings.
Target: T1, P5mS
T1 chain: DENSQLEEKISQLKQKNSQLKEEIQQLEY
Experiment: two-hybrid library CCNG1;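 note: natural log of median RNA to DNA barcode read ratio; higher means stronger binding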
Kindly provide the number alone.

Sample records with interaction score:
DKNSQLKEKISQLKEKIQQLKEENQQLEY [P12mS]
-1.57
DENSQLEEKISQLKQKNSQLKEEIQQLEY [P5mS]
-1.66
DEIQQLEEEISQLEQKNSQLKEKNQQLKY [P3mS]
-0.969

Exercise: Quick one: interaction score for DKISQLKQKIQQLKQENQQLEEENSQLEY [P4mS] ?
Solution: -1.04

Exercise: Please report the recorded interaction score for DENQQLEQEISQLEQEISQLEQKNSQLKY [P11mS] .
Solution: 0.261

Exercise: Can you share its interaction score? I mean this binder: DKNSQLKEENSQLEEKIQQLKEKIQQLKY [P10mS]
Solution: -1.28
